viability, T/C values by entry
- Tested on: MDA-MB-231 multicell spheroids, viability
- METHOD_DESCRIPTION: Anticancer human tumor MDA-MB-231 cell line growth inhibition [PI3K];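 note: spheroids exposed to agents for seven days before reading; percent of vehicle control luminescence with DMSO treated spheroids as 100%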
- CONDITIONS: second compound 0.1 µM; first compound 0.1 µM; active compounds read low
Answer format: numeric, % implied, no suffix.

CNC(=O)c1ccc(N2C(=S)N(c3ccc(C#N)c(C(F)(F)F)c3)C(=O)C2(C)C)cc1F + Cc1nc(NC(=O)N2CCCC2C(N)=O)sc1-c1ccnc(C(C)(C)C(F)(F)F)c1 :: 88.3
CC1(C)CCC(Nc2ncc(C(F)(F)F)c(-c3c[nH]c4c(P(C)(C)=O)c(C#N)ccc34)n2)CN1 (stereo unspecified) + COc1c(OCCCN2CCOCC2)ccc2c3n(c(=NC(=O)c4cnc(N)nc4)nc12)CCN3 :: 31.1
C=CC(=O)N1CCN(c2nc(=O)n(-c3c(C)ccnc3C(C)C)c3nc(-c4c(O)cccc4F)c(F)cc23)C(C)C1 (stereo unspecified) + CC(Nc1ccc2c(c1)OCCn1cc(N3C(=O)OCC3C(F)F)nc1-2)C(N)=O :: 71.2
CNC(=O)c1ccc(N2C(=S)N(c3ccc(C#N)c(C(F)(F)F)c3)C(=O)C2(C)C)cc1F + CC(Nc1ccc2c(c1)OCCn1cc(N3C(=O)OCC3C(F)F)nc1-2)C(N)=O :: 71.8
Cn1ncnc1[C@H]1c2n[nH]c(=O)c3cc(F)cc(c23)N[C@@H]1c1ccc(F)cc1 + COc1c(OCCCN2CCOCC2)ccc2c3n(c(=NC(=O)c4cnc(N)nc4)nc12)CCN3 :: 37.5

Per the reported MDA-MB-231 multicell spheroids, viability data, Cn1nccc1Nc1nccc(-c2ccn(C(CO)c3ccc(Cl)c(F)c3)c(=O)c2)n1 (stereo unspecified) + COc1c(OCCCN2CCOCC2)ccc2c3n(c(=NC(=O)c4cnc(N)nc4)nc12)CCN3 has viability, T/C of 34.3

Per the reported MDA-MB-231 multicell spheroids, viability data, CC(=O)c1c(C)c2cnc(Nc3ccc(N4CCNCC4)cn3)nc2n(C2CCCC2)c1=O + CC(Nc1ccc2c(c1)OCCn1cc(N3C(=O)OCC3C(F)F)nc1-2)C(N)=O has viability, T/C of 27.9

###

- Test system: MDA-MB-231 multicell spheroids, viability
- METHOD_DESCRIPTION: Anticancer human tumor MDA-MB-231 cell line growth inhibition [PI3K];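 note: spheroids exposed to agents for seven days before reading; percent of vehicle control luminescence with DMSO treated spheroids as 100%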
- CONDITIONS: second compound 10 µM; first compound 1 µM; active compounds read low
Please use y for viability, T/C under 50% and n for everything else, ties included.

Example results:
CCCS(=O)(=O)Nc1ccc(F)c(C(=O)c2c[nH]c3ncc(-c4ccc(Cl)cc4)cc23)c1F + CC(Nc1ncnc2nc[nH]c12)c1cc2cccc(Cl)c2c(=O)n1-c1ccccc1 :: y
CC1(C)CCC(Nc2ncc(C(F)(F)F)c(-c3c[nH]c4c(P(C)(C)=O)c(C#N)ccc34)n2)CN1 (stereo not given) + CC(Nc1ncnc2nc[nH]c12)c1cc2cccc(Cl)c2c(=O)n1-c1ccccc1 :: y
CCN1CCN(Cc2ccc(Nc3ncc(F)c(-c4cc(F)c5nc(C)n(C(C)C)c5c4)n3)nc2)CC1 + Cc1nc(NC(=O)N2CCCC2C(N)=O)sc1-c1ccnc(C(C)(C)C(F)(F)F)c1 :: y
C=CC(=O)N1CCN(c2nc(=O)n(-c3c(C)ccnc3C(C)C)c3nc(-c4c(O)cccc4F)c(F)cc23)C(C)C1 (stereo not given) + CC(Nc1ncnc2nc[nH]c12)c1cc2cccc(Cl)c2c(=O)n1-c1ccccc1 :: n

We next turn to a different compound, shown below.
(Q) Quick check: viability, T/C of CC(Cn1ccc(-c2ccc(C#N)c(Cl)c2)n1)NC(=O)c1cc(C(C)O)[nH]n1 (stereo not given) + Cc1nc(NC(=O)N2CCCC2C(N)=O)sc1-c1ccnc(C(C)(C)C(F)(F)F)c1 under 50%?
(A) n

Values compiled from PubChem BioAssay AID1963958.
